# assay-text: Selectivity index, ratio of CC50 for human HepG2(2.2.15) cells to IC50 for antiviral activity against lamivudine/entecavir resistant HBV harboring reverse transcriptase L180M/M204V/T184L mutant infected in human HepG2(2.2.15) cells
# Type: toxicity, cell-based
# condition-summary: read-out: Ratio CC50/IC50

{"compound": "Nc1ccn([C@@H]2CS[C@H](CO)O2)c(=O)n1 [LAMIVUDINE]", "sign": "<", "selectivity ratio": 1}
{"compound": "O=C(N[C@H](CO)Cc1ccccc1)/C(NC(=O)c1ccccc1)=C(/Br)c1ccc(O)cc1", "sign": "=", "selectivity ratio": 11.6}
{"compound": "CN(C)CCOc1ccc(/C(Br)=C(/NC(=O)c2ccccc2)C(=O)N[C@H](CO)Cc2ccccc2)cc1", "sign": "=", "selectivity ratio": 89.7}
{"compound": "Cc1cccc(/C(Br)=C(/NC(=O)c2ccccc2)C(=O)N[C@H](CO)Cc2ccccc2)c1", "sign": ">", "selectivity ratio": 130}

Data origin: ChEMBL document CHEMBL4145455
